Across several publications, the following pIC50 results were reported for UniProt P97612.
Biological target: UniProt P97612
Sequence (P97612 whole entry): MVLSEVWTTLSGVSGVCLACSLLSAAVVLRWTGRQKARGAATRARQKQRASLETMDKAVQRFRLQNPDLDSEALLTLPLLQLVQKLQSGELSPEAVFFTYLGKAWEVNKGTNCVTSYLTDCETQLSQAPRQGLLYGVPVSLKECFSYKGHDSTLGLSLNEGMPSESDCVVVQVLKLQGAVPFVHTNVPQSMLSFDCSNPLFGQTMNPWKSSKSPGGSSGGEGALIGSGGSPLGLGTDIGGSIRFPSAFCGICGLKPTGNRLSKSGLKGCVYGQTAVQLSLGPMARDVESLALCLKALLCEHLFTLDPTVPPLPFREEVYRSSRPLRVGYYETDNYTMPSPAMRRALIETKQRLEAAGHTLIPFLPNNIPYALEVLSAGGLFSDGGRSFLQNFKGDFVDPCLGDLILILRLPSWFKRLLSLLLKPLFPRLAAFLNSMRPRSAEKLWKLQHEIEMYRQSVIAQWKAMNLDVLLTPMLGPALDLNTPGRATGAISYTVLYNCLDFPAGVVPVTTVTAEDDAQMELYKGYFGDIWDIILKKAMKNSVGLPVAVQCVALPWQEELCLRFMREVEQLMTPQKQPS
pIC50: −log10 of the molar value.
measuredProperty: pIC50

CCCCCCCCc1ccc(OCC(=O)Cn2nnc3cccnc32)cc1 : 7.89
O=C(Oc1ccccc1)N1CCC(Cn2ccc3ccccc32)CC1 : 5.01
CCCCCCCCCCCCCC(=O)C(F)(F)F : 5.64

1 = O=C(Oc1cccc(-c2ccccc2)c1)N1CCN(c2ncccc2C(F)(F)F)CC1
2 = CC(C)(C)c1cccc(OC(=O)N2CCN(c3ncccc3C(F)(F)F)CC2)c1
3 = O=C(Nc1ccc(-c2nc(-c3ccc(Cl)cc3)cs2)cc1)C1CCN(S(=O)(=O)c2cccs2)CC1
Query: Please put the entries in order of rising pIC50. Response field: labels, in requested order.
Result: 2, 1, 3
(2: 6.11, 1: 6.42, 3: 7.36)

A = O=C(Nc1cnccc1Cl)N1C[C@@H]2CN(Cc3cccc(Oc4ccc(Cl)cc4)c3)C[C@@H]21
B = O=C(N1CCCCCC1)N1CC(OC(c2ccc(Cl)cc2)c2cccnc2Cl)C1 (racemic)
Query: Identify the entry with the larger pIC50. Options: A and B Write down the label of the entry you select.
Result: A
(A: 6.86, B: 6.19)
